# System: HSkMC (human skeletal muscle cells)
# run_description: cytotoxicity call (relative viability < 0.9)
# reported_conditions: 10 µM
Out of some 39,000 compounds screened, about 1,500 (3.8%) were called active. The entries come from a sample that favours actives as a whole.
Classes used: label 1 = active, label 0 = inactive

>>> df
                                    compound  tested_on  label_value
 0     CCOCCCNc1nc2c([nH]1)c(=O)n(C)c(=O)n2C      HSkMC      label 0
 1  COCCCN1C(=O)[C@@]2(Cc3ccccc31)c1ccccc1C(=O)N(Cc1ccccc1)[C@H]2c1ccc(CO)cc1      HSkMC      label 0
 2  C[C@@H]1CN([C@H](C)CO)C(=O)c2cc(NS(=O)(=O)c3ccccc3)ccc2O[C@@H]1CN(C)S(C)(=O)=O      HSkMC      label 0
 3      C[C@H]1C(=O)C(=O)[C@@H]2O[C@@H]2C1=O      HSkMC      label 0
 4  C[C@@H]1CN([C@H](C)CO)C(=O)CCCn2nncc2CO[C@@H]1CN(C)S(=O)(=O)c1ccc(Oc2ccccc2)cc1      HSkMC      label 0
 5  Clc1ccc(CSC(Cn2ccnc2)c2ccc(Cl)cc2Cl)cc1.O=[N+]([O-])O (stereo unspecified)      HSkMC      label 1
 6  C[C@@H]1CN([C@H](C)CO)C(=O)c2cc(NC(=O)Nc3ccc(C(F)(F)F)cc3)ccc2O[C@H]1CN(C)Cc1ccccc1      HSkMC      label 1
 7  C[C@@H](NC(=O)C[C@H]1C=C[C@H](NC(=O)CN2CCOCC2)[C@H](CO)O1)c1ccccc1      HSkMC      label 0
 8              C[C@H](N)C(=O)N1CCc2ccccc2C1      HSkMC      label 0
 9  C[C@H](CO)N1C[C@H](C)[C@H](CN(C)Cc2ccc(C(=O)O)cc2)Oc2ccc(NC(=O)Nc3ccc(C(F)(F)F)cc3)cc2C1=O      HSkMC      label 0
10  CC(C)NC(=O)N(C)C[C@@H]1OCCCC[C@@H](C)Oc2ccc(NC(=O)C3CCCCC3)cc2C(=O)N([C@@H](C)CO)C[C@@H]1C      HSkMC      label 0
11  Cc1ccc(S[C@]2(C(=O)NCCN3CCOCC3)CC(=O)N(Cc3ccccc3Cl)[C@@H]2c2ccc(CO)cc2I)cc1      HSkMC      label 0
12  O=C(NCC[C@@H]1CC[C@H](NS(=O)(=O)c2cccc(F)c2)[C@H](CO)O1)C1CC1      HSkMC      label 0
13  COc1ccc(CN(C)C[C@@H]2OCCCC[C@@H](C)Oc3ccc(NC(=O)c4ccccc4)cc3C(=O)N([C@H](C)CO)C[C@@H]2C)cc1      HSkMC      label 0
14              CCNC(=S)N1CCC[C@H](C(N)=O)C1      HSkMC      label 0
15  Cc1nnc(SCC2=C(C(=O)O)N3C(=O)[C@@H](NC(=O)Cn4cnnn4)[C@H]3SC2)s1      HSkMC      label 0
16         C[C@H]1CN=C(NS(=O)(=O)c2ccccc2)N1      HSkMC      label 0
17  C[C@H]1CN([C@@H](C)CO)S(=O)(=O)c2ccc(C#CC3(O)CCCC3)cc2O[C@@H]1CN(C)C(=O)Cc1ccncc1      HSkMC      label 0
18  C[C@H]1CN([C@@H](C)CO)C(=O)Cc2cc(NC(=O)NC3CCCCC3)ccc2O[C@@H]1CN(C)C(=O)Nc1ccc(C(F)(F)F)cc1      HSkMC      label 0
19  COCC(=O)N1C[C@@H](C)[C@H](OC)CN(C)C(=O)c2ccc(NC(=O)Nc3cccc(F)c3)cc2OC[C@H]1C      HSkMC      label 0
20  O=C(Cn1cc(COc2ccc3ccccc3c2)nn1)NS(=O)(=O)c1ccccc1OC(F)(F)F      HSkMC      label 0
21  C[C@H](CO)N1C[C@H](C)[C@@H](CN(C)C(=O)Nc2ccc(F)cc2)OCCCC[C@H](C)Oc2ccc(NC(=O)Nc3cccc4ccccc34)cc2C1=O      HSkMC      label 0
22  C[C@H](CO)N1C[C@H](C)[C@@H](CN(C)Cc2ccccc2)Oc2ccc(NC(=O)Nc3ccc(C(F)(F)F)cc3)cc2C1=O      HSkMC      label 1
23  C[C@H](CO)N1C[C@H](C)[C@@H](CN(C)Cc2ccc(C(=O)O)cc2)Oc2ccc(NC(=O)Nc3ccc(C(F)(F)F)cc3)cc2C1=O      HSkMC      label 0
24  C[C@@H]1CN([C@@H](C)CO)C(=O)c2cc(NC(=O)CCC(F)(F)F)ccc2O[C@@H](C)CCCCO[C@@H]1CN(C)C(=O)CCC(F)(F)F      HSkMC      label 0
25  C[C@H]1CCCCO[C@H](CN(C)C(=O)Nc2ccc(F)cc2)[C@@H](C)CN([C@@H](C)CO)C(=O)c2cc(NC(=O)Nc3ccc(F)cc3)ccc2O1      HSkMC      label 0
26  COc1ccc(NC(=O)Nc2ccc3c(c2)C(=O)N([C@@H](C)CO)C[C@@H](C)[C@H](CN(C)S(=O)(=O)c2ccc(F)cc2)OCCCC[C@@H](C)O3)cc1      HSkMC      label 0
27  C[C@@H]1CN([C@H](C)CO)C(=O)c2cccc(NC(=O)c3cnccn3)c2O[C@@H]1CN(C)CC1CCCCC1      HSkMC      label 0
28  C[C@H](CO)N1C[C@H](C)[C@H](CN(C)Cc2ccccc2)Oc2ccc(NC(=O)Nc3ccc(C(F)(F)F)cc3)cc2C1=O      HSkMC      label 0
29  C[C@H](CO)N1C[C@H](C)[C@H](CN(C)Cc2ccc3c(c2)OCO3)OCCCC[C@H](C)Oc2ccc(NC(=O)Nc3ccc(C(F)(F)F)cc3)cc2C1=O      HSkMC      label 1
30  C[C@@H]1CN([C@@H](C)CO)C(=O)c2cc(NC(=O)CCN3CCOCC3)ccc2O[C@@H]1CN(C)CC1CC1      HSkMC      label 0
